The reported measurements were obtained from the Human Domainome abundance scans (Beltran et al. 2025).

B1: Homeobox protein cut-like 1, residues 548 to 629; numbered along this chain, P39880 (parent)
chain: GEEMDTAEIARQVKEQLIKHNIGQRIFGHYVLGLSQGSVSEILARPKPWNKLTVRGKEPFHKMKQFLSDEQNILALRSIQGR

variants of: B1; assay: abundance fitness (aPCA) (normalised: wild type 0, dead -1); higher = more abundant; growth selection in yeast, the domain comes from the species named; details: Homo sapiens
Mark true for reported abundance fitness of -0.07 or greater; mark false for anything smaller.

Reference set, count: 8
E15Q = false
G37K = true
F66L = false
I26M = false
V39R = false
L74G = false
R45M = true
S35G = true

# bool: abundance fitness of E70G >= -0.07
false
